Assay: logP determination by HPLC on a reversed-phase column (C18)
Assay type: physicochemical
Settings: HPLC-MS method a), reversed-phase column (C18)
With a cut-off of 4, any logP^a) strictly below it is called Fulfilled; any logP^a) meeting it or above is called Not fulfilled.

COc1ncc(-c2cnn(-c3c(C)cc(C(F)(C(F)(F)F)C(F)(F)F)cc3C)c2)cc1C(=O)N(C)C1CC1 ... Not fulfilled
COc1ncc(-c2cnn(-c3c(C)cc(C(F)(C(F)(F)F)C(F)(F)F)cc3C)c2)cc1C(=O)NC1CC1 ... Not fulfilled
Cc1cc(C(F)(C(F)(F)F)C(F)(F)F)cc(C(F)(F)F)c1-n1cc(-c2cnc(Cl)c(C(=O)N(C)C3(C#N)CC3)c2)cn1 ... Not fulfilled
CCc1cc(C(F)(C(F)(F)F)C(F)(F)F)ccc1-n1cc(-c2cnc(Cl)c(C(=O)NC3CC3)c2)cn1 ... Not fulfilled
O=C(NC1CC1)c1cc(-c2cnn(-c3ncc(C(F)(F)F)cc3C(F)(F)F)c2)ccc1Cl ... Fulfilled
Cc1cc(C(F)(C(F)(F)F)C(F)(F)F)cc(C(F)(F)F)c1-n1cc(-c2cnc(C)c(C(=O)N(C)C3CC3)c2)cn1 ... Fulfilled
Cc1cc(C(F)(C(F)(F)F)C(F)(F)F)cc(C)c1-n1cc(-c2cnc(Cl)c(C(=O)N(C)C3CC3)c2)cn1 ... Not fulfilled
NC(=S)C1(NC(=O)c2cc(-c3cnn(-c4c(Cl)cc(C(F)(C(F)(F)F)C(F)(F)F)cc4C(F)(F)F)c3)cnc2Cl)CC1 ... Fulfilled
Cc1ncc(-c2cnn(-c3c(Cl)cc(C(F)(F)F)cc3Cl)c2)cc1C(=O)N(C)C1(C#N)CC1 ... Fulfilled
CN(C(=O)c1cc(-c2cnn(-c3c(Cl)cc(C(F)(C(F)(F)F)C(F)(F)F)cc3Cl)c2)cnc1Cl)C1(C#N)CC1 ... Not fulfilled
CN(C(=O)c1cc(-c2cnn(-c3ccc(C(F)(C(F)(F)F)C(F)(F)F)cc3C(F)(F)F)c2)ccc1Cl)C1CC1 ... Not fulfilled
Cc1cc(C(F)(C(F)(F)F)C(F)(F)F)cc(C(F)(F)F)c1-n1cc(-c2ccc(Cl)c(C(=S)NC3CC3)c2)cn1 ... Not fulfilled
CCSc1cc(C(F)(C(F)(F)F)C(F)(F)F)cnc1-n1cc(-c2ccc(Cl)c(C(=O)NC3CC3)c2)cn1 ... Not fulfilled
Cc1cc(C(F)(C(F)(F)F)C(F)(F)F)cc(C)c1-n1cc(-c2cnc(C3CC3)c(C(=O)N(C)C3CC3)c2)cn1 ... Not fulfilled
Cc1cc(C(F)(C(F)(F)F)C(F)(F)F)cc(C)c1-n1cc(-c2cnc(C)c(C(=O)N(C)C3(C#N)CC3)c2)cn1 ... Fulfilled
Cc1cc(C(F)(C(F)(F)F)C(F)(F)F)cc(C(F)(F)F)c1-n1cc(-c2cnc(C)c(C(=O)NC3(C#N)CC3)c2)cn1 ... Fulfilled
CCN(C(=O)c1cc(-c2cnn(-c3c(Cl)cc(C(F)(F)F)cc3Cl)c2)cnc1Cl)C1CC1 ... Fulfilled
Cn1ccc(NC(=O)c2cc(-c3cnn(-c4c(Cl)cc(C(F)(F)F)cc4Cl)c3)cnc2Cl)n1 ... Fulfilled
CN(C(=O)c1cc(-c2cnn(-c3c(Cl)cc(C(F)(C(F)(F)F)C(F)(F)F)cc3C(F)(F)F)c2)cnc1Cl)C1(C#N)CC1 ... Not fulfilled
CC[S+]([O-])c1cc(C(F)(C(F)(F)F)C(F)(F)F)cnc1-n1cc(-c2ccc(Cl)c(C(=O)NC3CC3)c2)cn1 (stereo not drawn) ... Fulfilled
Cc1ncc(-c2cnn(-c3c(Cl)cc(C(F)(C(F)(F)F)C(F)(F)F)cc3Cl)c2)cc1C(=O)N(C)C1CC1 ... Fulfilled
N#CC1(NC(=O)c2cc(-c3cnn(-c4c(Cl)cc(C(F)(C(F)(F)F)C(F)(F)F)cc4OC(F)(F)F)c3)ccc2Cl)CC1 ... Not fulfilled
COc1ncc(-c2cnn(-c3c(C)cc(C(F)(C(F)(F)F)C(F)(F)F)cc3C)c2)cc1C(=O)NC1(C#N)CC1 ... Not fulfilled

* * *

Assay: logP determination by HPLC on a reversed-phase column (C18)
Type: physicochemical
Details: HPLC-MS method a), reversed-phase column (C18); Table I-T3
In this section we review reported logP^a) values for a set of molecules.
Measured quantity: logP^a)

O=C(NCC(F)(F)F)c1cc(-c2cnn(-c3c(Cl)cc(C(F)(C(F)(F)F)C(F)(F)F)cc3C(F)(F)F)c2)ccc1Cl ... 4.7
CCc1cc(C(F)(C(F)(F)F)C(F)(F)F)cc(C)c1-n1cc(-c2ccc(Cl)c(C(=O)NC3CC3)c2F)cn1 ... 4.8
N#CC1(NC(=O)c2cc(-c3cnn(-c4ccc(C(F)(C(F)(F)F)C(F)(F)F)cc4OC(F)(F)F)c3)ccc2Cl)CC1 ... 4.6
O=C(NC1CC1)c1cc(-c2cnn(-c3c(Cl)cc(C(F)(C(F)(F)F)C(F)(F)F)cc3Cl)c2)cnc1Cl ... 3.8
Cc1cc(C(F)(C(F)(F)F)C(F)(F)F)cc(C(F)(F)F)c1-n1cc(-c2ccc(Cl)c(C(=O)NC3CC3)c2)cn1 ... 4.4
Cc1cc(C(F)(C(F)(F)F)C(F)(F)F)cc(C)c1-n1cc(-c2ccc(Cl)c(C(=O)NCC(F)(F)F)c2)cn1 ... 4.7
CCc1cc(C(F)(C(F)(F)F)C(F)(F)F)ccc1-n1cc(-c2ccc(Cl)c(C(=O)NC3CC3)c2)cn1 ... 4.6

* * *

Test: logP determination by HPLC on a reversed-phase column (C18)
Format: physicochemical
Conditions: HPLC-MS method a), reversed-phase column (C18); Table I-T3
Measured quantity: logP^a)

CCc1cc(C(F)(F)C(F)(F)F)cc(C)c1-n1cc(-c2ccc(Cl)c(C(=O)NCC(F)(F)F)c2)cn1 ... 4.0
CCc1cc(C(F)(C(F)(F)F)C(F)(F)F)ccc1-n1cc(-c2cncc(C(=O)NC3(C#N)CC3)c2)cn1 ... 3.8
Cc1cc(C(F)(C(F)(F)F)C(F)(F)F)cc(C)c1-n1cc(-c2cc(C(=O)NC3(C#N)CC3)ccc2F)cn1 ... 4.3
O=C(NC1CC1)c1cc(-c2cnn(-c3c(F)cc(C(F)(C(F)(F)F)C(F)(F)F)cc3F)c2)ccc1Cl ... 4.0
O=C(NC1CC1)c1cc(-c2cnn(-c3ccc(C(F)(C(F)(F)F)C(F)(F)F)cc3C(F)(F)F)c2)ccc1Cl ... 4.3
CCc1cc(C(F)(F)C(F)(F)F)cc(C)c1-n1cc(-c2ccc(Cl)c(C(=O)NC3CC3)c2)cn1 ... 4.3
N#CC1(NC(=O)c2cc(-c3cnn(-c4c(Cl)cc(C(F)(C(F)(F)F)C(F)(F)F)cc4Cl)c3)cnc2Cl)CC1 ... 3.8
N#CC1(NC(=O)c2cccc(-c3cnn(-c4c(Cl)cc(C(F)(C(F)(F)F)C(F)(F)F)cc4Cl)c3)c2F)CC1 ... 4.1
CCc1cc(C(F)(C(F)(F)F)C(F)(F)F)cc(C)c1-n1cc(-c2cncc(C(=O)NC3(C#N)CC3)c2)cn1 ... 3.4
Cc1cc(C(F)(C(F)(F)F)C(F)(F)F)cc(C)c1-n1cc(-c2ccc(Cl)c(C(=O)NC3CSC3)c2)cn1 ... 4.7
Cc1cc(C(F)(C(F)(F)F)C(F)(F)F)cc(C)c1-n1cc(-c2cc(C(=O)NC3CC3)ccc2F)cn1 ... 4.5
Cc1cc(C(F)(C(F)(F)F)C(F)(F)F)cc(Br)c1-n1cc(-c2ccc(Cl)c(C(=O)NC3CC3)c2)cn1 ... 4.5
CCc1cc(C(F)(C(F)(F)F)C(F)(F)F)ccc1-n1cc(-c2cccc(C(=O)NC3(C#N)CC3)c2F)cn1 ... 4.5
Cc1cc(C(F)(C(F)(F)F)C(F)(F)F)cc(C)c1-n1cc(-c2cc(C(=O)NC3(C#N)CC3)c(Cl)cc2F)cn1 ... 4.4

* * *

Assay: logP determination by HPLC on a reversed-phase column (C18)
Format: physicochemical
Conditions: HPLC, C18 reversed phase, acetonitrile/water with formic acid, EEC Directive 79/831 Annex V.A8
In this section we review reported logP values for a set of compounds.
Measured quantity: logP

Cc1cc(C(F)(C(F)(F)F)C(F)(F)F)cc(C)c1-c1cc(-c2ccc(Cl)c(C(=O)NC3CC3)c2)on1 [I-T22-1] ... 4.8
Cc1cc(C(F)(C(F)(F)F)C(F)(F)F)cc(C)c1-c1cc(-c2ccc(Cl)c(C(=O)NCC(F)(F)F)c2)on1 [I-T22-3] ... 5
Cc1cc(C(F)(C(F)(F)F)C(F)(F)F)cc(C(F)(F)F)c1-c1cc(-c2ccc(Cl)c(C(=O)NC3CC3)c2)on1 [I-T22-5] ... 4.9
N#CC1(NC(=O)c2cc(-c3cc(-c4c(Cl)cc(C(F)(C(F)(F)F)C(F)(F)F)cc4Cl)on3)ccc2Cl)CC1 [I-T23-2] ... 4.8
